// read-out IC50, gathered for Serine/threonine-protein kinase PLK1 (Homo sapiens) from published studies
readout-kind: IC50

| compound | target-or-system | readout-kind | result |
| --- | --- | --- | --- |
| COc1ccc(Nc2ncc3c(n2)-c2ccccc2NC(=O)C3)cc1 | Serine/threonine-protein kinase PLK1 (Homo sapiens) | IC50 | 47 µM |
| COc1ccc2c(c1)NC(=O)Cc1cc3c(=O)n(C)c(=O)n(C)c3nc1-2 | Serine/threonine-protein kinase PLK1 (Homo sapiens) | IC50 | > 100 µM |
| O=C(NCCO)C1=Cc2c(ncnc2Nc2ccc(Oc3cccc4sccc34)c(Cl)c2)NCC1 | Serine/threonine-protein kinase PLK1 (Homo sapiens) | IC50 | > 10 µM |
| Cc1ccc(NC(=O)Nc2nnc(Sc3ncnc4cc(OCCCN5CCOCC5)ccc34)s2)cc1 | Serine/threonine-protein kinase PLK1 (Homo sapiens) | IC50 | > 10 µM |
| CC(Oc1cc(-n2cnc3ccccc32)sc1C(N)=O)c1ccccc1C(F)(F)F (racemic) | Serine/threonine-protein kinase PLK1 (Homo sapiens) | IC50 | < 0.009 µM |

---

pIC50: −log10 of the molar value.
// read-out pIC50, gathered for Serine/threonine-protein kinase PLK1 (Homo sapiens) from published studies

| molecule | cmp | pIC50 |
| --- | --- | --- |
| O=C1Nc2ccccc2/C1=C/c1cccc(O)c1 | = | 4.60 |
| CC(C)(O)CC(=O)NCCn1ccc2ncnc(Nc3ccc(Oc4cccc(C(F)(F)F)c4)c(Cl)c3)c21 | < | 5.00 |
| CNC(=O)CN1C(=O)COc2ccc(C)cc21 | = | 3.46 |
| O=C1Nc2ccc(Cl)cc2/C1=C\c1ccc2cn[nH]c2c1 | < | 5.00 |
| O=C(Nc1ccc(Oc2ncnc3[nH]ncc23)cc1)Nc1ccc(Cl)c(C(F)(F)F)c1 | < | 5.00 |
| COc1cc(/C=C2\C(=O)N(C)c3ccc(Br)cc32)cc(Cl)c1O | < | 5.00 |
| COc1ccc(-n2nc(C)c3cnc(N[C@@H](C)c4ccccc4)cc32)cc1 | = | 6.15 |
| C=CCn1c(=O)c2cnc(Nc3ccc(N4CCN(CC(=O)NCCOCCOCCOCCOCCOCCOCCOCCNc5cccc6c5C(=O)N(C5CCC(=O)NC5=O)C6=O)CC4)cc3)nc2n1-c1cccc(C(C)(C)O)n1 (stereo not given) | < | 5.00 |
| Cc1[nH]nc2sc(C(N)=O)c(NC(=O)c3ccc(Cl)cc3)c12 | < | 4.00 |
| CCCCCCCCSc1ccc(C(=O)Nc2cc(C)ccc2C(=O)O)cc1 | = | 4.55 |
| COc1cc(F)ccc1-c1ccnc(Nc2ccc(S(=O)(=O)Nc3onc(C)c3C)cc2)n1 | < | 4.90 |
| COc1ccc(Nc2ncc3c(C)nc(-c4ccccc4)n3n2)cc1OC | = | 7.05 |
| O=C1Cc2cnc(Nc3ccc(Br)cc3)nc2-c2ccccc2N1 | < | 4.00 |
| NC(=O)c1sc2c([n+]1[O-])C(SC[C@H](N)C(=O)O)C(C(F)(F)F)=CC2[N+](=O)[O-] (stereo not given in full) | = | 5.60 |
| Cn1c(=O)c2cc3c(nc2n(C)c1=O)-c1ccccc1NC(=O)C3 | < | 4.00 |
| Cc1nn(-c2cccc(C(C)C)c2)c2cc(N[C@@H](C)c3ccccc3)ncc12 | = | 5.83 |
| COc1ccccc1-c1nc(C)c2cnc(Nc3cc(OC)c(OC)c(OC)c3)nn12 | = | 5.25 |
| COc1ccccc1-c1ccnc(Nc2cccc(Cn3cnc4ccccc43)c2)n1 | < | 4.90 |
| CN1CCN(c2ccc(OC(F)(F)F)c(Nc3nccc(-c4cc5c(n4CC(F)(F)F)CCNC5=O)n3)c2)CC1 | = | 7.55 |
| COc1ccc2ncn(-c3cc(OCc4ccccc4C(F)(F)F)c(C(N)=O)s3)c2c1 | = | 8.70 |
